Test: protein stability index of a GFP-peptide fusion (yeast GPS) (PSI 1-4); higher = more stable; sorted into four equal gates, so the index is relative within each strain
Conditions: san1∆
Measurement Label: protein stability index
Please give the numeric answer without any surrounding text.

Incoming: protein stability index lookup needed for SFATATCVTCHWNLPGE [SIR2] , thanks.
Outgoing: 1.9

Incoming: protein stability index lookup needed for FNIISMTLKEMYQMITM [SMC4] , thanks.
Outgoing: 2.22

Incoming: protein stability index lookup needed for LRVEHIKHSKCRQEFLE [RPL21A] , thanks.
Outgoing: 1.17

Incoming: protein stability index lookup needed for FQNSKSASLFKQRKNPR [RPL24A] , thanks.
Outgoing: 2.49
